List of IC50 values.
- target of assay: Programmed cell death protein 1/Programmed cell death 1 ligand 1 (Homo sapiens, UniProt Q15116+Q9NZQ7)
- Sequence (Q15116 whole entry): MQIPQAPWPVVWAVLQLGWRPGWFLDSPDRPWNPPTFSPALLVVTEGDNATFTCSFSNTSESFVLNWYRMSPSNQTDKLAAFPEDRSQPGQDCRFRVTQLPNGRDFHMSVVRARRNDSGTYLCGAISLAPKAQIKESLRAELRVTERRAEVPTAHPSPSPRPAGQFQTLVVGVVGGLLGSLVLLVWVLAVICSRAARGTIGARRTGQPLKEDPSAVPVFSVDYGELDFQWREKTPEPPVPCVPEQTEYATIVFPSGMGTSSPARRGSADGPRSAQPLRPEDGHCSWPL
- Sequence (Q9NZQ7 whole entry): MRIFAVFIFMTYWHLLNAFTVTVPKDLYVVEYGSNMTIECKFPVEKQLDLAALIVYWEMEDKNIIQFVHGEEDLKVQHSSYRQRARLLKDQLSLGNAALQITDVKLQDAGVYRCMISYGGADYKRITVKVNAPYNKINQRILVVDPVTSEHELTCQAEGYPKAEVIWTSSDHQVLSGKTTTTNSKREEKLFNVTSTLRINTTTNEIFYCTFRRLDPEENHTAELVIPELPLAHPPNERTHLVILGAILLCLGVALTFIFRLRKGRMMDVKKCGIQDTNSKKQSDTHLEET
- method description: Inhibition of PD-1/PDL1 interaction (unknown origin) in by HTRF assay
quantity: IC50 (µM)

Cc1c(COc2ccc(CNCCC(=O)NO)c(OCc3cccc(C#N)c3)c2)cccc1-c1ccccc1 ... 0.082
COc1cc(OCc2cccc(-c3ccccc3)c2C)cc(OC)c1CN(C)CCCC(=O)NO ... 0.104
Cc1c(COc2ccc(CNCCCCCC(=O)NO)c(F)c2)cccc1-c1ccccc1 ... 0.062
COc1cc(OCc2cccc(-c3ccccc3)c2C)cc(OC)c1CNCCCCCCC(=O)NO ... 0.085
Cc1c(COc2ccc(CNCCC(=O)NO)c(F)c2)cccc1-c1ccccc1 ... 0.12

These data points were gathered from ChEMBL document CHEMBL5512609.
